All values here come from patent US20220372067A1.

- Target Desc: GABAA receptor (TBPS binding site), rat brain cortical membranes
- Assay Info: [35S]-TBPS binding assay, rat brain cortical membranes in the presence of 5 mM GABA
- Condition Description: inhibition of 3 nM [35S]-TBPS binding
pIC50: −log10 of the molar value.

{"columns": ["Structure String", "pIC50"],
 "data": [
  ["CCOC[C@@]1(O)CC[C@H]2[C@H](CC[C@@H]3[C@@H]2CC[C@]2(C)[C@@H](C(=O)Nc4ccc(C#N)nn4)CC[C@@H]32)C1", "> 7.00"],
  ["CCOC[C@@]1(O)CC[C@H]2[C@H](CC[C@@H]3[C@@H]2CC[C@]2(C)[C@@H](C(=O)Nc4cc(C)nn4C)CC[C@@H]32)C1", "> 7.00"],
  ["Cc1nc2n(c1NC(=O)[C@H]1CC[C@H]3[C@@H]4CC[C@@H]5C[C@](C)(O)CC[C@@H]5[C@H]4CC[C@]13C)CCCC2", "6.00 to 7.00"],
  ["CCOC[C@@]1(O)CC[C@H]2[C@H](CC[C@@H]3[C@@H]2CC[C@]2(C)[C@@H](C(=O)Nc4cc(C5CC5)nn4C)CC[C@@H]32)C1", "> 7.00"],
  ["COC[C@@]1(O)CC[C@H]2[C@H](CC[C@@H]3[C@@H]2CC[C@]2(C)[C@@H](C(=O)Nc4cccc(C)n4)CC[C@@H]32)C1", "> 7.00"],
  ["CCOC[C@@]1(O)CC[C@@]2(CC)[C@H](CC[C@H]3[C@@H]4CC[C@H](C(=O)Nc5cnc(C#N)cn5)[C@@]4(C)CC[C@@H]32)C1", "> 7.00"],
  ["COC[C@@]1(O)CC[C@H]2[C@H](CC[C@@H]3[C@@H]2CC[C@]2(C)[C@@H](C(=O)Nc4ccc(-n5nccc5C)nc4C)CC[C@@H]32)C1", "> 7.00"],
  ["CC[C@@]1(O)CC[C@H]2[C@H](CC[C@@H]3[C@@H]2CC[C@]2(C)[C@@H](C(=O)Nc4nc(C)ccc4Cl)CC[C@@H]32)C1", "6.00 to 7.00"],
  ["COC[C@@]1(O)CC[C@H]2[C@H](CC[C@@H]3[C@@H]2CC[C@]2(C)[C@@H](C(=O)Nc4ccc(N5CCCC5=O)nc4C)CC[C@@H]32)C1", "> 7.00"],
  ["COC[C@@]1(O)CC[C@H]2[C@@H](CC[C@@H]3[C@@H]2CC[C@]2(C)[C@@H](C(=O)Nc4cccc(C)n4)CC[C@@H]32)C1", "> 7.00"],
  ["COC[C@@]1(O)CC[C@H]2[C@H](CC[C@@H]3[C@@H]2CC[C@]2(C)[C@@H](C(=O)Nc4ncccc4Cl)CC[C@@H]32)C1", "6.00 to 7.00"]
]}
